- experimental_system: Voltage-gated potassium channel subunit beta-2 (Rattus norvegicus) (UniProt P62483)
- Sequence (P62483 whole entry, looked up): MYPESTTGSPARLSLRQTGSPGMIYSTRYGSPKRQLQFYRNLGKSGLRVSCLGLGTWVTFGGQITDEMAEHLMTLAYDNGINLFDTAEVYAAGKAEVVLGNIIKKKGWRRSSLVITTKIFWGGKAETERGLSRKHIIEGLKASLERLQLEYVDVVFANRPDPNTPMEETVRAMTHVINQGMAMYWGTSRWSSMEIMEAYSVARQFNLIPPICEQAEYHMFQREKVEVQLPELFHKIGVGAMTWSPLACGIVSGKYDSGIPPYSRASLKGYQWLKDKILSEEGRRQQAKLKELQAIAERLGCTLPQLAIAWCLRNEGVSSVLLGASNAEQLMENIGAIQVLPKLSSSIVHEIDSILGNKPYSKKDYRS
- measurement_description: inhibitors of rat Kvbeta2 reductase activity – biochemical, NADPH fluorescence, primary screen (AID 622);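 also: slope of raw intensity against log time taken from 70 to 1610 s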
- condition_info: recombinant KvBeta, 4-cyanobenzaldehyde reduction, at 10 µM, hits give high values
readout_type: fluorescence slope
// keep it numeric: no unit symbol after the value

Example entries begin here.
CC(=O)NCCc1nc2ccccc2[nH]1	-0.553
C=CCn1c(=O)c(C(=O)Nc2ccccc2C(=O)OCC)c(O)c2ccccc21	-0.422
CCOC(=O)c1cnc(SCC)[nH]c1=O	-0.351

[in] Form field: reported fluorescence slope of Cc1ccc2[nH]c(=O)c3cc(C(=O)NCCN4CCN(C)CC4)sc3c2c1
[out] -0.229
